assay: AUC(0 to t) in Sprague-Dawley rat plasma at 10 mg/kg, iv measured up to 48 hrs by LC-MS/MS analysis; assay type: ADME, organism-based; parameters: dose 10 mg/kg, time < 48 hrs, route iv
MEASURED QUANTITY: AUC(0-t) at 48 h (ng·h/mL)

INSERT INTO results (structure, measurement_units, value) VALUES
  ('O=C(Cc1cccc(Oc2ccccc2)c1)Nc1nnc(N[C@@H]2CCN(c3cccnn3)C2)s1', 'ng·h/mL', 4630);

----------
test: MRT(0 to t) in Sprague-Dawley rat plasma at 100 mg/kg, po measured up to 48 hrs by LC-MS/MS analysis; assay type: ADME, organism-based
MEASURED QUANTITY: MRT last at 48 h (h)

INSERT INTO measurements (structure, value) VALUES
  ('O=C(Cc1cccc(Oc2ccccc2)c1)Nc1nnc(N[C@@H]2CCN(c3cccnn3)C2)s1', 3.73);
